Molecular target: T1, Human BCMA (human, UniProt Q02223 1-54, limits assumed)
T1 construct: Soluble analyte in SPR; construct not described; also called huBCMA; B-cell maturation antigen
T1 sequence (looked up): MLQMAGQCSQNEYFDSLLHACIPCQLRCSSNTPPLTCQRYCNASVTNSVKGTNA
Assay: SPR, IgG immobilised, 25 C
What koff was measured for each of the following?
Numbers only, in s⁻¹.

binder	unit_name	assay_result
L1.LGF/L3.PY/H3.AQ (antibody, V domains shown, IgG) VH: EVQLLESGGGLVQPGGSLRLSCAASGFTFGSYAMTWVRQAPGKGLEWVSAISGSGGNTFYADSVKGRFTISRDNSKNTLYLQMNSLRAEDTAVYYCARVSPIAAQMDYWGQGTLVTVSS VL: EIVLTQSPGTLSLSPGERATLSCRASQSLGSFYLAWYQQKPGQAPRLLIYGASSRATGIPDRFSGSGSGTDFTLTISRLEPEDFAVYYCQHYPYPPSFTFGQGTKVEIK	s⁻¹	0.000886
L1.LGF/L3.NY/H3.AP (antibody, V domains shown, IgG) VH: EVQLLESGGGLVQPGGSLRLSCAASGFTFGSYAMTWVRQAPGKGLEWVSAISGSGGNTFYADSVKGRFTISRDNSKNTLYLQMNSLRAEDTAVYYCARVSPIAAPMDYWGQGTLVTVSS VL: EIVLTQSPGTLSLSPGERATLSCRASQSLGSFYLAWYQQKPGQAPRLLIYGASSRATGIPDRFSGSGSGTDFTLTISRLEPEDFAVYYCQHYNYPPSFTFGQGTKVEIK	s⁻¹	0.000533

Here is another binder to look at.
# input binder: L1.LGF/L3.KW/H3.AP (antibody, V domains shown, IgG) VH: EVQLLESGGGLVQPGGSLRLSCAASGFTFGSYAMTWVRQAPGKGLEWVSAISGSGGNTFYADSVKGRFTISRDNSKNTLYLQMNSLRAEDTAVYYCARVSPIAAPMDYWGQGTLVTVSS VL: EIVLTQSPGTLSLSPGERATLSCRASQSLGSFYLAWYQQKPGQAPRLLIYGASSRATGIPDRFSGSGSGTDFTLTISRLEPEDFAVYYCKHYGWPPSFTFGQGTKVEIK ; wanted: its koff
0.00227
